system: Ca2+/CaM-sensitive phosphodiesterase; assay: Inhibition of Ca2+/CaM-sensitive phosphodiesterase (FIGS. 1-4); assay type: biochemical
measure: Concentration range inhibitory of Ca2+/CaM-sensitive phosphodiesterase

>>> result("CCCCCCCc1cc(OC(=O)c2c(CCCCCCC)cc(O)cc2O[C@H]2O[C@H]([C@@H](O)CO)[C@@H](O)[C@@H]2O)cc(O)c1C(=O)O")
"approximately 10 μM"
>>> result("CCCCCCCc1cc(O)cc(OC(=O)c2c(CCCCCCC)cc(O)cc2O[C@@H]2O[C@@H]([C@H](O)CO)[C@H](O)[C@H]2O)c1")
"1 to 2 µM"
>>> result("CCCCCCCc1cc(O)cc(OC(=O)c2c(CCCCCCC)cc(O)cc2O[C@H]2O[C@H]([C@@H](O)CO)[C@@H](O)[C@@H]2O)c1")
"1 to 2 µM"
>>> result("CCCCCCCc1cc(OC(=O)c2c(CCCCCCC)cc(O)cc2O[C@@H]2O[C@@H]([C@H](O)CO)[C@H](O)[C@H]2O)cc(O)c1C(=O)O")
"approximately 10 μM"

Reference for the values: patent US5386019A
